assay: Drug concentration in brain of mouse model of complete Freund's adjuvant-induced inflammatory pain at 30 mg/kg, po measured after 90 mins post dose; type: ADME, organism-based; details: read-out: Drug uptake

[
  {
    "compound-structure": "O=S(=O)(Nc1nccs1)c1cc(Cl)c(NC[C@H]2CCCOC2)cc1F",
    "concentration at 1.5 h": "< 25 nM"
  }
]

* * *

assay: Oral bioavailability life in mouse at 30 mg/kg; format: ADME, organism-based; conditions: in vivo
measured-quantity: bioavailability

[
  {
    "compound-structure": "O=S(=O)(Nc1nccs1)c1cc(Cl)c(NC[C@H]2CCCOC2)cc1F",
    "value-measured": "47%"
  }
]
